In this section we review reported growth values for a set of compounds.
tested on: MDA-MB-231 breast; test: NCI-60 one-dose screen, 48 h (100 = growth as untreated, 0 = no growth, -100 = all killed); details: 10 µM unless noted
This is part of a sample that, as a whole, favours compounds with a hit. Of some 83,000 tested, about 20% had one in any assay.
result_type: growth (%)

- smiles_repr: "O=C1/C(=C\\c2ccc3nccnc3c2)SC(=S)N1CCc1ccc(O)cc1"
  target_of_assay: "MDA-MB-231 breast"
  result_type: "growth"
  measured_value: 88.7
- smiles_repr: "CCCCCCCCCc1ccc(OCCOCCOCCOCCOCCOCCOCCOCCOCCO)cc1"
  target_of_assay: "MDA-MB-231 breast"
  result_type: "growth"
  measured_value: -38.1
- smiles_repr: "COc1cc2cc(NCc3cccc(Cl)c3)nc(C)c2cc1OC"
  target_of_assay: "MDA-MB-231 breast"
  result_type: "growth"
  measured_value: 41.6
- smiles_repr: "Cn1ccnc1C(=O)/C=C/c1ccc(C(=O)Nc2ccccc2O)cc1"
  target_of_assay: "MDA-MB-231 breast"
  result_type: "growth"
  measured_value: 46.2
- smiles_repr: "c1ccc(-c2oc(-c3ccccc3)c(CN3CCCCC3)c2CN2CCCCC2)cc1"
  target_of_assay: "MDA-MB-231 breast"
  result_type: "growth"
  measured_value: 29.6
- smiles_repr: "CCOC(=O)C/C(=N\\Nc1cc(=O)[nH]c2ccc(Br)cc12)C(=O)OCC"
  target_of_assay: "MDA-MB-231 breast"
  result_type: "growth"
  measured_value: 102
